Entries and their response
- measured-on: Beta-2 adrenergic receptor (Homo sapiens)
- assay: agonist-induced loss of surface beta2AR – cell-based, FAP fluorogen, flow cytometry, primary screen (AID 504454)
- assay-context: Am2.2-beta2AR cells, FAP receptor internalization, active compounds read high, concentration not given here
Hit rate of the full screen: of about 340,000 compounds, about 1,400 (0.41%) were called active. For the sample, actives were picked, then their nearest neighbours and some compounds at random.
Give the quantity in %, number only.

See these solved cases before continuing.
In: # input molecule: COc1ccc(CCOC2OC(CO)C(OC(=O)/C=C/c3ccc(O)c(OC)c3)C(O[C@H]3O[C@@H](C)[C@H](O)[C@@H](O)[C@H]3O)C2O)cc1O (stereo partly specified) ; wanted: its response
Out: 1.58

In: Same read-out for `Cc1nn(Cc2ccccc2)c(C)c1C(=O)N1CCN(CC(=O)Nc2ccccc2Cl)CC1` ?
Out: 4.22

Switching to the query record.
In: Entry `COC(=O)c1[nH]c2ccccc2c1NC(=O)CN1CCCc2ccccc21` : reported response = ?
Out: 6.44

* * *

The following compounds are listed with their measured response values.
- measured-on: Beta-2 adrenergic receptor (Homo sapiens) (UniProt P07550)
- Sequence (P07550 whole entry, looked up): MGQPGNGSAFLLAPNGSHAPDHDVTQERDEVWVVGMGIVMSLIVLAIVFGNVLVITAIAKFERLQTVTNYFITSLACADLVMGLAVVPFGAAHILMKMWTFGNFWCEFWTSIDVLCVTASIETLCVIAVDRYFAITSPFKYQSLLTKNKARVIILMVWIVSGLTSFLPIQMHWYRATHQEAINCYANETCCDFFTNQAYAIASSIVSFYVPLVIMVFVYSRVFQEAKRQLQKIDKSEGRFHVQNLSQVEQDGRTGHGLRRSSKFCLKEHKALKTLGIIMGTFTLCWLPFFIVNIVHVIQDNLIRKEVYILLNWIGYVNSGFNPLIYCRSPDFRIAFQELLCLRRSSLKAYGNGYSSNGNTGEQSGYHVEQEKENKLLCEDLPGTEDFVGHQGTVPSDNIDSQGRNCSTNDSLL
- assay: agonist-induced loss of surface beta2AR – cell-based, FAP fluorogen, flow cytometry, primary screen (AID 504454)
- assay-context: Am2.2-beta2AR cells, FAP receptor internalization, active compounds read high, concentration not given here
Screen size: about 340,000 compounds; about 1,400 (0.41%) were called active. What follows is part of a selection rich in actives, with near analogues and random picks from the rest.
The answer is to be given in %; state only the numeric part.

In: Form field: response recorded for `COC(CNC(=O)Cn1ncc2ccsc2c1=O)OC` with Beta-2 adrenergic receptor (Homo sapiens) (UniProt P07550) (enter value)
Out: 1.39

In: `CCOC(=O)C1CCN(CC(=O)Nc2ccc(OC)c(S(=O)(=O)N3CCCCC3)c2)CC1` ?
Out: 11.9

In: Query `Nc1cc(N2CCCCCC2)c2nonc2c1[N+](=O)[O-]` next
Out: 7.26

In: What do you get for `CCCCCCSc1ccc(-c2nc3ccc(Cl)cn3c2NCc2ccccc2)cc1` ?
Out: -5.85

In: How about `COC(=O)c1ccc(OCC(=O)NC(C)(C)C)cc1` ?
Out: 6.76

In: Consider next the compound `CCCCNC(=S)NNC(=O)c1cc(C)on1` in the same way.
Out: 8.38

* * *

- measured-on: Beta-2 adrenergic receptor (Homo sapiens)
- assay: agonist-induced loss of surface beta2AR – cell-based, FAP fluorogen, flow cytometry, primary screen (AID 504454)
- assay-context: Am2.2-beta2AR cells, FAP receptor internalization, concentration not given here
In all, about 340,000 compounds went through this assay and about 1,400 (0.41%) were called active.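 Rule for the calls: active = response above a set limit, near 3 SD of response in nonfluorescent compounds (cut at about 42% in these data); inactive = the rest.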 The sample as a whole holds a higher share of actives than the screen did.
Answer with one of the outcomes active, inactive

Below, 5 compounds whose answers are already recorded.
In: Kindly provide the recorded test outcome for the following compound: C#CCN1CC(C)/C(=N/O)CC1C (centres undefined)
Out: inactive

In: Thanks! And COc1ccc(C2CC(c3cccs3)Nc3nnnn32)cc1 (centres undefined) ?
Out: inactive

In: What would you report for `Cc1ccn2cc(-c3nonc3C)cc2c1` ?
Out: inactive

In: Same lookup for `CCCn1c(C)cc(/C=C(\C#N)C(=O)OCC(=O)Nc2cc(OC)c(OC)c(OC)c2)c1C` , please.
Out: inactive

In: Input `COc1cc(C2C3=C(CCCC3=O)OC3=C2C(=O)CCC3)ccc1OCC(=O)Nc1ccccc1`
Out: inactive

***
In: Call for entry COc1ccc(C2c3ccc(O)cc3Oc3ncn(CCCO)c(=N)c32)cc1OC (centres undefined) :
Out: inactive

In: And for `CC(C)(CSc1nncn1/N=C/c1ccco1)NS(=O)(=O)c1ccc(Cl)cc1` ?
Out: active

In: Entry `O=S(=O)(NCCSc1ccccn1)c1ccc(Cl)cc1` please
Out: inactive

In: Moving on to the next compound: `CCN(CC)S(=O)(=O)c1ccc(N2CCCC2)c(NC(=O)c2ccc([N+](=O)[O-])o2)c1`
Out: inactive

In: Here is the next compound: `COc1ccc(CCNC(=O)CCc2ccccc2O)cc1OC`
Out: inactive

In: Now give it for `O=C(/C=C/c1ccco1)NC(=S)Nc1ccccc1Br` too.
Out: inactive

* * *

- measured-on: Beta-2 adrenergic receptor (Homo sapiens)
- assay: agonist-induced loss of surface beta2AR – cell-based, FAP fluorogen, flow cytometry, primary screen (AID 504454)
- assay-context: Am2.2-beta2AR cells, FAP receptor internalization, concentration not given here
The campaign covered roughly 340,000 compounds. About 1,400 (0.41%) were called active.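 The calls were made as follows: active = response above a set limit, near 3 SD of response in nonfluorescent compounds (cut at about 42% in these data); inactive = the rest.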 The sample as a whole holds a higher share of actives than the screen did.
Outcome field: choose from true for active, false for inactive

Reference set (5 entries):
In: What did this assay record as the result for `Cc1ccc(SCC(=O)N2CCN(c3ccc(F)cc3)CC2)cc1` ?
Out: false

In: Now consider `COc1ccc(CCNC(=O)C2CCN(c3nn4c(=O)cc(C)nc4s3)CC2)cc1OC` .
Out: false

In: What about `COc1ccccc1NC(=O)Nc1nc(CC(=O)Nc2ccccc2F)cs1` ?
Out: false

In: Could you do the same for Cc1cnc(C)c(N2CCN(C(=O)C3CCC(=O)N(CCc4cccc(F)c4)C3)CC2)n1 (stereo unspecified) , please?
Out: false

In: Can you check `COc1ccc(OC)c(CCNC(=O)CCn2ccc3cc(S(=O)(=O)N4CCCC4)ccc32)c1` next?
Out: false

Further cases:
In: Dear colleague, could you share the recorded outcome for `O=C(COc1ccccc1F)Nc1nc(-c2ccccn2)cs1` when you have a moment?
Out: false

In: Now consider `CSc1ccc(CCNC(=O)C2CCN(c3nnc(-n4cccc4)s3)CC2)cc1` .
Out: true

In: What about this compound? `CSc1ccc(S(=O)(=O)N2CCC(C(=O)NCCc3ccccc3)CC2)cc1`
Out: false

In: Can you check `COc1ccc(CC(=O)Nc2nc(-c3ccc(F)c(F)c3)cs2)cc1OC` next?
Out: true

In: Can you check `Cc1ccc(OCC(=O)Nc2ccc(-c3nc4ncccc4o3)cc2)cc1` next?
Out: true

In: # iterate: `O=C1c2ccccc2C(=O)N1CCC#Cc1ccc2cc(C3(O)CCCCC3)oc(=O)c2c1`
Out: false

In: Another compound: `COc1ccc(C2=Nn3c(nnc3-c3ccccc3OC)SC2)cc1OC1CCCC1`
Out: false

In: Repeat for the following compound: `C=CCNC(=O)COC(=O)c1ccccc1C(=O)N(C)C1CCCCC1`
Out: false

In: Similarly, `O=S(=O)(c1ccccc1)c1nc(Cc2ccccc2)oc1N1CCOCC1` ?
Out: false

In: Queued: `COc1cc(C#Cc2ccc3cc(CCCO)oc(=O)c3c2)cc(OC)c1`
Out: true

In: Likewise for `COc1cc(OC)cc(C(=O)NNC(=O)CCOc2ccccc2OC)c1` ?
Out: false

In: Same for CCCOCC(O)CC(CC)C(=O)NNC(=S)Nc1ccccc1 (stereo unspecified)
Out: false

In: Next compound up: COC(=O)c1ccc(C23CC4(C2)[C@H](CN(Cc2cccnc2)[C@@H]4c2ccccc2)C3c2ccc(Cl)nc2)cc1 (stereo partly specified)
Out: false

In: Next entry: `O=C(COC(=O)CCc1c[nH]c(=O)[nH]1)Nc1ccccc1Cl`
Out: false

In: Moving on to `COc1cc(/C=C2\Oc3ccc(C#Cc4ccc(O)cc4)cc3C2=O)cc(OC)c1`
Out: false

In: Follow-up entry: O=C(Cn1nc(Cc2cccnc2)c2ccccc2c1=O)NCC1CCCO1 (stereo unspecified)
Out: false

* * *

- measured-on: Beta-2 adrenergic receptor (Homo sapiens)
- assay: agonist-induced loss of surface beta2AR – cell-based, FAP fluorogen, flow cytometry, primary screen (AID 504454)
- assay-context: Am2.2-beta2AR cells, FAP receptor internalization, active compounds read high, concentration not given here
Among all 340,000 compounds or so, about 1,400 (0.41%) were called active. The full list was thinned out, with actives kept by preference.
attribute-measured: response (%)
Answer in %, number only, no unit symbol.

In: Item under review: `C#CCOCCOCCOCCNc1nc(N2CCN(C(=O)CCCCCCCCCCNC(=O)[C@H]([C@@H](C)CC)n3cc(CCCCN=C(N)N)nn3)CC2)nc(N2CCN(C(=O)CCCCCCCCCCNC(=O)[C@H](CO)n3cc(CCCSC)nn3)CC2)n1` . Reported response?
Out: 96.3

New cases:
In: Consider the compound shown here: CC(=O)Nc1ccc(NC(=O)C(C)OC(=O)c2ccccc2C(=O)c2ccc(Cl)c([N+](=O)[O-])c2)cc1 (configuration not stated) What is its recorded response?
Out: 20.8

In: Now consider `Brc1ccccc1CN1CCC(Cc2ccccc2)CC1` .
Out: 4.82

Numbers sourced from PubChem BioAssay AID504454.
